system name: FD3
test summary: competition
test readout: pKi
Note: pKi values are expressed as the negative base-10 logarithm of concentration in M.

input: I have this binder here, NHERF-2 PDZ2 (N2P2) PDZ2, Q15599 (protein) LRPRLCHLRKGPQGYGFNLHSDKSRPGQYIRSVDPGSPAARSGLRAQDRLIEVNGQNVEGLRHAEVVASIKAREDEARLLVVDPETD , and I need its recorded pKi.
output: 5.04
